system: Escherichia coli ATCC 25922; assay: MIC range and interpretive result on gram-negative reference strain; type: cell-based; conditions: MIC range against breakpoints LB + UB

# Molecular string, Interpretive result
data = [
    ("CCN1CCN(c2cc3c(cc2F)c(=O)c(C(=O)O)cn3C2CC2)CC1", "S"),
    ("CO/N=C(\\C(=O)N[C@@H]1C(=O)N2C(C(=O)O)=C(CSC(=O)c3ccco3)CS[C@H]12)c1csc(N)n1", "S"),
    ("CC1(C)S[C@@H]2[C@H](NC(=O)[C@H](N)c3ccccc3)C(=O)N2[C@H]1C(=O)O", "S"),
    ("CN(C)[C@@H]1C(O)=C(C(N)=O)C(=O)[C@@]2(O)C(O)=C3C(=O)c4c(O)cccc4[C@@](C)(O)[C@H]3C[C@@H]12", "S"),
    ("CN[C@@H]1[C@H](O)[C@H](NC)[C@H]2O[C@@]3(O)C(=O)C[C@@H](C)O[C@H]3O[C@@H]2[C@H]1O", "S/R"),
]
